Listed below: pIC50 values for each entry.
# Test system: NCI-H69 cell line
# method summary: Cell viability assay for NCI-H69 cell line (EZ-Cytox)
# Assay type: cell-based
# assay conditions: Homo sapiens, NCI-H69, 120 h; H69 cells, 5 days, 3000 nM to 0.46 nM
pIC50: −log10 of the molar value.

Some solved entries appear below for comparison.
[[record]]
molecule = "COc1cc(C(=O)NC2CC3(CCN(CC4CCN(c5cnc(C6CCC(=O)NC6=O)cc5C)CC4)CC3)C2)ccc1Nc1ncc2c(n1)N(C1CCCC1)CC(F)(F)C(=O)N2C (centres unmarked)"
assay_system = "NCI-H69 cell line"
result = "> 7.52"

[[record]]
molecule = "COc1cc(C(=O)N[C@H]2[C@@H]3CN(CCN4CCN(c5ccc(NC6CCC(=O)NC6=O)cc5)CC4)C[C@@H]32)ccc1Nc1ncc2c(n1)N(C(C)C)CC(F)(F)C(=O)N2C (some centres unmarked)"
assay_system = "NCI-H69 cell line"
result = "> 7.30"

[[record]]
molecule = "COc1cc(C(=O)NN2CCC(CCN3CCN(c4ccc(NC5CCC(=O)NC5=O)c(F)c4)CC3)CC2)ccc1Nc1ncc2c(n1)N(C(C)C)CC(F)(F)C(=O)N2C (centres unmarked)"
assay_system = "NCI-H69 cell line"
result = "> 7.52"

[[record]]
molecule = "COc1cc(C(=O)NC2CCN(C3CN(c4ccc(C5CCC(=O)NC5=O)cc4F)C3)CC2)ccc1Nc1ncc2c(n1)N(C(C)C)CC(F)(F)C(=O)N2C (centres unmarked)"
assay_system = "NCI-H69 cell line"
result = "> 7.00"


Shifting focus to the molecule that follows.
*Q* Quick one: pIC50 of COc1cc(C(=O)NN2CCC(C3CCN(c4ccc(C5CCC(=O)NC5=O)cc4F)C3)CC2)ccc1Nc1ncc2c(n1)N(C(C)C)CC(F)(F)C(=O)N2C (centres unmarked) ?
*A* > 7.00

====

Listed below: pIC50 values for each entry.
# System: MRC-5 cell line
# method summary: Cell viability assay for MRC-5 cell line (EZ-Cytox)
# Format: cell-based
# assay conditions: Homo sapiens, MRC5, 120 h, read-out: Activity: IC50 value, cell viability, MRC-5 cell line (Comparative Compounds)
Scale note: pIC50 = -log10(concentration in M).

[[record]]
compound = "COc1cc(C(=O)NC2CCN(C)CC2)c(F)cc1Nc1ncc2c(n1)N(C1CCCC1)CC(F)(F)C(=O)N2C [Comparative Compound 4, TAK960, reference compound]"
numeric_result = 5.04


*Q* Quick one: pIC50 of CC[C@@H]1C(=O)N(C)c2cnc(Nc3ccc(C(=O)N[C@H]4CC[C@H](N5CCN(CC6CC6)CC5)CC4)cc3OC)nc2N1C(C)C [Comparative Compound 3, Volasertib, reference compound] ?
*A* 5.53

*Q* Repeat for the following compound: CC[C@@H]1C(=O)N(C)c2cnc(Nc3ccc(C(=O)NC4CCN(C)CC4)cc3OC)nc2N1C1CCCC1 [Comparative Compound 2, BI2536, reference compound]
*A* 5.51

====

# Test system: NCI-H69 cell line
# method summary: Cell viability assay for NCI-H69 cell line (EZ-Cytox)
# Format: cell-based
# assay conditions: Homo sapiens, NCI-H69, 120 h; H69 cells, 5 days, 3000 nM to 0.46 nM
Listed below: IC50 values for each entry.

Some solved entries appear below for comparison.
[[record]]
compound = "COc1cc(C(=O)NN2CCC(N3CC4(CCN(c5cccc(C6CCC(=O)NC6=O)c5)CC4)C3)CC2)ccc1Nc1ncc2c(n1)N(C1CCCC1)CC(F)(F)C(=O)N2C (centres unmarked) [Compound 1]"
result = "< 50 nM"

[[record]]
compound = "COc1cc(C(=O)NN2CCC(CCN3CCN(c4cc(F)c(NC5CCC(=O)NC5=O)cc4F)CC3)CC2)c(F)cc1Nc1ncc2c(n1)N(C(C)C)CC(F)(F)C(=O)N2C (centres unmarked) [Compound 60]"
result = "< 50 nM"

[[record]]
compound = "COc1cc(C(=O)NN2CCC(CCN3CCN(c4cc(OC)c(C5CCC(=O)NC5=O)cc4F)CC3)CC2)ccc1Nc1ncc2c(n1)N(C(C)C)CC(F)(F)C(=O)N2C (centres unmarked) [Compound 7]"
result = "< 50 nM"

[[record]]
compound = "COc1cc(C(=O)NC2CCC(N(C)CC3CCN(c4ccc(NC5CCC(=O)NC5=O)cc4F)CC3)CC2)ccc1Nc1ncc2c(n1)N(C(C)C)CC(F)(F)C(=O)N2C (centres unmarked) [Compound 26]"
result = "< 30 nM"

[[record]]
compound = "COc1cc(C(=O)NC2CCN(CCC3CCN(c4cc(F)c(NC5CCC(=O)NC5=O)cc4F)CC3)CC2)ccc1Nc1ncc2c(n1)N(C(C)C)CC(F)(F)C(=O)N2C (centres unmarked) [Compound 62]"
result = "< 30 nM"

[[record]]
compound = "CCN1CC(F)(F)C(=O)N(C)c2cnc(Nc3cc(F)c(C(=O)NN4CCC(CCN5CCN(c6ccc(NC7CCC(=O)NC7=O)c(F)c6)CC5)CC4)cc3OC)nc21 (centres unmarked) [Compound 35]"
result = "< 50 nM"

[[record]]
compound = "COc1cc(C(=O)NN2CCC(CCN3CCN(c4cc(OC)c(NC5CCC(=O)NC5=O)cc4F)CC3)CC2)ccc1Nc1ncc2c(n1)N(C(C)C)CC(F)(F)C(=O)N2C (centres unmarked) [Compound 39]"
result = "< 30 nM"

[[record]]
compound = "COc1cc(C(=O)NC2CCN(CCN3CCN(c4cc(F)c(NC5CCC(=O)NC5=O)cc4F)CC3)CC2)ncc1Nc1ncc2c(n1)N(C1CCCC1)CC(F)(F)C(=O)N2C (centres unmarked) [Compound 68]"
result = "< 100 nM"

[[record]]
compound = "COc1cc(C(=O)NN2CCC(CCN3CCN(c4cc(F)c(NC5CCC(=O)NC5=O)cc4F)CC3)CC2)c(F)cc1Nc1ncc2c(n1)N(C1CCCC1)CC(F)(F)C(=O)N2C (centres unmarked) [Compound 59]"
result = "< 50 nM"

[[record]]
compound = "COc1cc(C(=O)NC2CCC(N(C)CC3CCN(c4ccc(C5CCC(=O)NC5=O)nc4)CC3)CC2)ccc1Nc1ncc2c(n1)N(C1CCCC1)CC(F)(F)C(=O)N2C (centres unmarked) [Compound 10]"
result = "< 30 nM"


Shifting focus to the compound that follows.
*Q* Quick one: IC50 of COc1cc(C(=O)NC2CCN(CCN3CCN(c4cc(Cl)c(NC5CCC(=O)NC5=O)cc4F)CC3)CC2)c(F)cc1Nc1ncc2c(n1)N(C(C)C)CC(F)(F)C(=O)N2C (centres unmarked) [Compound 72] ?
*A* < 100 nM
